- Test description: Half life in Sprague-Dawley rat at 50 mg/kg, po
- Format: ADME, organism-based
- Design: dose 50 mg/kg, route oral
- Experimental parameters: in vivo
Readout: half-life (h)
Supply the numeric figure in h, leaving out any unit text.

Prompt line: Param item = `Cn1nc(C(F)(F)F)cc1C(=O)Nc1ccc(S(=O)(=O)N2CCCC[C@H]2CCN2CCOCC2)cc1` ; retrieve measured half-life.
Response line: 6.5

###

- Test description: Solubility of the compound at pH 7.4 by nephelometric analysis
- Assay type: physicochemical
- Experimental parameters: buffer
Readout: solubility kinetic

Please review the entries below; each comes with its answer.
>>> df
                                   compound             readout  observed_value
0  Cn1nc(C(F)(F)F)cc1C(=O)Nc1ccc(S(=O)(=O)N2CCCCC2CCN2CCOCC2)cc1 (centres undefined)  solubility kinetic        55 µg/mL
1  Cn1nc(C(F)(F)F)cc1C(=O)Nc1ccc(S(=O)(=O)N2CCCCC2CO)cc1 (centres undefined)  solubility kinetic        61 µg/mL
2  Cn1nc(C(F)(F)F)cc1C(=O)Nc1ccc(S(=O)(=O)N2CCCC[C@H]2CCN2CCOCC2)cc1  solubility kinetic        60 µg/mL
3  Cn1nc(C(F)(F)F)cc1C(=O)Nc1ccc(S(=O)(=O)c2ccccc2O)cc1  solubility kinetic        67 µg/mL
4  COc1ccccc1S(=O)(=O)c1ccc(NC(=O)c2cc(C(F)(F)F)nn2C)cc1  solubility kinetic      < 15 µg/mL

Prompt line: What value of solubility kinetic has been recorded for this entry: Cn1nc(C(F)(F)F)cc1C(=O)Nc1ccc(S(=O)(=O)N2CCCCC2CCO)cc1 (centres undefined)
Response line: 62 µg/mL

Prompt line: Please do the same for `Cn1nc(C(F)(F)F)cc1C(=O)Nc1ccc(S(=O)(=O)c2ccccc2CO)cc1` as well.
Response line: 46 µg/mL

Prompt line: Follow-up item: `Cn1nc(C(F)(F)F)cc1C(=O)Nc1ccc(S(=O)(=O)c2ccccc2)cc1`
Response line: 22 µg/mL

Prompt line: What do we get for `Cn1nc(C(F)(F)F)cc1C(=O)Nc1ccc(S(=O)(=O)N2CCCCC2)cc1` ?
Response line: < 15 µg/mL
